These measurements were taken from patent US20230364118A1.

experiment: 28-day repeat-dose oral toxicokinetics; assay type: in vivo, CD-1 mouse; details: female, CD-1, mouse, plasma, po, 0.5 g/kg, 0.5 g/kg/dose BID, Day 1, Female

[
  {
    "Given smiles": "OC[C@@H](O)[C@@H](O)[C@@H](O)CO",
    "Cmax, µg/mL": 157
  }
]

###

experiment: Single intravenous dose PK; assay type: in vivo, Bama minipig; settings: Bama, minipig, plasma; IV 10 mg/kg, male; read-out: Vss

[
  {
    "Compound": "OC[C@@H](O)[C@@H](O)[C@@H](O)CO [ribitol, (2R,3s,4S)-Pentane-1,2,3,4,5-pentol]",
    "Vd": "0.603 L/kg"
  }
]

###

assay: 7-day repeat-dose oral toxicokinetics; type: in vivo, Bama minipig; details: female, Bama, minipig, plasma, po, 0.3 g/kg, 0.3 g/kg BID, Day 1, F; read-out: AUC0-24

[
  {
    "Compound": "OC[C@@H](O)[C@@H](O)[C@@H](O)CO [ribitol, (2R,3s,4S)-Pentane-1,2,3,4,5-pentol]",
    "AUC(0-t) / µg·h/mL": 676
  }
]

###

Assay: Metabolic stability in liver microsomes, cytosol, hepatocytes
Type: in vitro ADME
Settings: Sprague-Dawley, rat, liver cytosol, Cytosol
Description: Metabolic stability of ribitol was conducted in liver microsomes, cytosol, and primary hepatocytes, from CD-1 mouse, Sprague-Dawley rat, Gottingen minipig, and human at a concentration of ribitol of 10 μM.
Readout label: CLint scaled at 10 μM (mL/min/kg)

[
  {
    "Molecule": "OC[C@@H](O)[C@@H](O)[C@@H](O)CO [ribitol, (2R,3s,4S)-Pentane-1,2,3,4,5-pentol]",
    "Result value": 4.83
  }
]

###

experiment: 7-day repeat-dose oral toxicokinetics; format: in vivo, Bama minipig; details: female, Bama, minipig, plasma, po, 0.1 g/kg, 0.1 g/kg BID, Day 7, F
Readout label: Tmax (min)

[
  {
    "Compound": "OC[C@@H](O)[C@@H](O)[C@@H](O)CO [ribitol, (2R,3s,4S)-Pentane-1,2,3,4,5-pentol]",
    "Result value": 48
  }
]

###

test: Single oral dose PK; format: in vivo; conditions: Bama, minipig, plasma; single PO 1.0 g/kg, male
Readout label: half-life (h)

[
  {
    "Compound": "OC[C@@H](O)[C@@H](O)[C@@H](O)CO [ribitol, (2R,3s,4S)-Pentane-1,2,3,4,5-pentol]",
    "Endpoint unit": "h",
    "Result value": 1.47
  }
]

###

experiment: PK comparison QD, BID, TID oral dosing; assay type: in vivo; settings: male, CD-1, mouse, plasma, po, 0.3 g/kg, PO 0.3 g/kg QD

[
  {
    "Given smiles": "OC[C@@H](O)[C@@H](O)[C@@H](O)CO",
    "Endpoint unit": "min",
    "half-life": 50.3
  }
]

###

Assay: Single intravenous dose PK
Format: in vivo, Bama minipig
Conditions: Bama, minipig, plasma; IV 10 mg/kg, female; read-out: Vss
Protocol: The PK of ribitol was studied in 2 male and 2 female Bama minipigs following escalating IV doses levels using the same animals with a 48 hour washout period at 10 mg/kg (Day 1), 30 mg/kg (Day 3) and 100 mg/kg (Day 5). On each dosing day, blood samples were collected serially up to 24 hours post dose.
Readout label: Vd

[
  {
    "Given smiles": "OC[C@@H](O)[C@@H](O)[C@@H](O)CO",
    "Readout label": "Vd",
    "Result value": "0.417 L/kg"
  }
]
